Cited source: PubChem BioAssay AID1645863

Target: UniProt Q14694
Sequence (Q14694 whole entry, looked up): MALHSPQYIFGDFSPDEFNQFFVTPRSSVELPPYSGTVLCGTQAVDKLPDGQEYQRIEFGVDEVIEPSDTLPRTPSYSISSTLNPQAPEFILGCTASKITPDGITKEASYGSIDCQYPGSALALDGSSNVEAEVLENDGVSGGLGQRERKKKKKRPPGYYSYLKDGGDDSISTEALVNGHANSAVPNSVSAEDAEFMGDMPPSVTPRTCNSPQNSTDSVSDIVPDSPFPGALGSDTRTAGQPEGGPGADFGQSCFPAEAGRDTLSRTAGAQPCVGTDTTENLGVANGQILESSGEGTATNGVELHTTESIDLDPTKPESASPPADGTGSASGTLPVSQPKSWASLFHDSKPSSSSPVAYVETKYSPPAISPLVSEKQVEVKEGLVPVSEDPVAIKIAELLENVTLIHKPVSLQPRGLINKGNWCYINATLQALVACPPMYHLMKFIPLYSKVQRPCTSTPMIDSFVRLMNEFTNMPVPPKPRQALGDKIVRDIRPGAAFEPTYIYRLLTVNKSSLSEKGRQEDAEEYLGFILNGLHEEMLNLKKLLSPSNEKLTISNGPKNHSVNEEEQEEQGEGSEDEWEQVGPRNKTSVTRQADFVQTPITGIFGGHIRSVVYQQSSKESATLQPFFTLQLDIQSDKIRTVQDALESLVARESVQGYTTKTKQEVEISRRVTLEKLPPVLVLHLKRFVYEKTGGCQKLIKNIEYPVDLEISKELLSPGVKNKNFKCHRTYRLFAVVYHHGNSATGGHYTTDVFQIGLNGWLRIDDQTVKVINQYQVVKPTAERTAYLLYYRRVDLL
Assay: ubiquitin-specific protease 10 DUB inhibitors, concentration-effect, biochemical, verification of primary screen actives (AID 1645863);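 further: potency values describe inhibition of USP10 cleavage of a fluorogenic ubiquitin substrate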
Conditions: USP10 deubiquitinase enzymatic assay
The source made the active and inactive calls. How the calls were made is not given here.
Your answer must be one of the following: Y for active, N for inactive

COc1ccc(NC(=O)CC(=O)c2ccc([N+](=O)[O-])cc2)cc1S(=O)(=O)Nc1ccc(Cl)cc1	Y
Cc1ccc2c(c1)c(=O)c(C(=O)c1ccccc1)cn2CC(=O)Nc1ccc2c(c1)OCCO2	N
COc1cc(C2CC(=O)c3c([nH]c(C(=O)OCCOc4ccccc4)c3C)C2)cc(OC)c1OC (stereo not given)	N
CCC(C)N1CNc2c(c(=O)[nH]c(=O)n2Cc2ccco2)C1 (stereo not given)	N

Then this compound:
Hello, I am checking results. What call was entered for COc1ccc(C)cc1NC(=O)Nc1nnc(CC(=O)NCc2ccccc2)s1 ?
N
